The variants listed here are annotated with their fraction ligated.
B1: minF1; the commonest letter at each place (parent)
chain: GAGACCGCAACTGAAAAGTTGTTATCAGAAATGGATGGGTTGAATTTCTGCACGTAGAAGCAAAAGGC

variants of: B1; test: fraction ligated after 30 min (ligated reads / total reads); higher = more ligase activity; settings: with F1*subA RNA substrate (template-directed ligation), 42 °C

| sequence_string | fraction ligated |
| --- | --- |
| GAGACCGCAACTGAAAAGTTGTTATCATATATGGATGGGTTGAATTTCTGCACGTAGAAGCAAAAGGC [G28T A30T] | 0.832 |
| GAGACCGCAACTGAAAAGTTGTTATCAGAAGTGGATGGGTTGACTTTCTGCACGTAGAAGCAAAAGGC [A31G A44C] | 0.71 |
| GAGACCGCAACTGAAAAGTTGTTGTCAGAAATGGCTGGGTTGAATTTCTGCACGTAGAAGCAAAAGGC [A24G A35C] | 0.0163 |
| GAGACCGCAACTGAAAAGTTGTTATCAGAAATAGATGGGTTTAATTTCTGCACGTAGAAGCAAAAGGC [G33A G42T] | 0.102 |
| GAGACCGCAACTGAAAAGTTGTTATCTGAAATGGTTGGGTTGAATTTCTGCACGTAGAAGCAAAAGGC [A27T A35T] | 0.102 |
| GAGACCGCAACTGAAAAGTTGTTTTCAGAAATGGATGGGTTGTATTTCTGCACGTAGAAGCAAAAGGC [A24T A43T] | 0.00827 |
| GAGACCGCAACTGAAAAGTTGTCATCCGAAATGGATGGGTTGAATTTCTGCACGTAGAAGCAAAAGGC [T23C A27C] | 0.133 |
| GAGACCGCAACTGAAAAGTTGTTATCTAAAATGGATGGGTTGAATTTCTGCACGTAGAAGCAAAAGGC [A27T G28A] | 0.825 |
| GAGACCGCAACTGAAAAGTTGTTATCAAAAATCGATGGGTTGAATTTCTGCACGTAGAAGCAAAAGGC [G28A G33C] | 0.719 |
| GAGACCGCAACTGAAAAGTTGTTATCAGGAATGGATGGGTTGAGTTTCTGCACGTAGAAGCAAAAGGC [A29G A44G] | 0.753 |
| GAGACCGCAACTGAAAAGTTGTTATCCGAAATGGATGGGTTTAATTTCTGCACGTAGAAGCAAAAGGC [A27C G42T] | 0.0494 |
| GAGACCGCAACTGAAAAGTTGTTATCGGATATGGATGGGTTGAATTTCTGCACGTAGAAGCAAAAGGC [A27G A30T] | 0.78 |
| GAGACCGCAACTGAAAAGTTGTTATCAGAACTGGATGGGTTGAGTTTCTGCACGTAGAAGCAAAAGGC [A31C A44G] | 0.754 |
| GAGACCGCAACTGAAAAGTTGTTATCAGAAATGGATCGGTTGATTTTCTGCACGTAGAAGCAAAAGGC [G37C A44T] | 0.00681 |
| GAGACCGCAACTGAAAAGTTGTGATAAGAAATGGATGGGTTGAATTTCTGCACGTAGAAGCAAAAGGC [T23G C26A] | 0.123 |
| GAGACCGCAACTGAAAAGTTGTTATCAGAAATGGAAGGGTTGAATTTCTGCACGTAGAAGCAAAAGGC [T36A] | 0.0309 |
| GAGACCGCAACTGAAAAGTTGTGATCTGAAATGGATGGGTTGAATTTCTGCACGTAGAAGCAAAAGGC [T23G A27T] | 0.805 |
| GAGACCGCAACTGAAAAGTTGTTATCAGCAATGGATCGGTTGAATTTCTGCACGTAGAAGCAAAAGGC [A29C G37C] | 0.00528 |
| GAGACCGCAACTGAAAAGTTGTTATCACAAATGGATAGGTTGAATTTCTGCACGTAGAAGCAAAAGGC [G28C G37A] | 0.0114 |
| GAGACCGCAACTGAAAAGTTGTTATCAGGAATGGTTGGGTTGAATTTCTGCACGTAGAAGCAAAAGGC [A29G A35T] | 0.023 |
| GAGACCGCAACTGAAAAGTTGTTATCATAAATGGATGGGTTCAATTTCTGCACGTAGAAGCAAAAGGC [G28T G42C] | 0.017 |
| GAGACCGCAACTGAAAAGTTGTTATCAGAAATGAACGGGTTGAATTTCTGCACGTAGAAGCAAAAGGC [G34A T36C] | 0.0256 |
| GAGACCGCAACTGAAAAGTTGTCATCAGAAATGGCTGGGTTGAATTTCTGCACGTAGAAGCAAAAGGC [T23C A35C] | 0.00513 |
| GAGACCGCAACTGAAAAGTTGTCATCAGAAATGTATGGGTTGAATTTCTGCACGTAGAAGCAAAAGGC [T23C G34T] | 0.00428 |
| GAGACCGCAACTGAAAAGTTGTTATCAGAAAACGATGGGTTGAATTTCTGCACGTAGAAGCAAAAGGC [T32A G33C] | 0.0102 |
| GAGACCGCAACTGAAAAGTTGTTATCAGACATGGATCGGTTGAATTTCTGCACGTAGAAGCAAAAGGC [A30C G37C] | 0.00447 |
| GAGACCGCAACTGAAAAGTTGTTATCAGAACTCGATGGGTTGAATTTCTGCACGTAGAAGCAAAAGGC [A31C G33C] | 0.653 |
| GAGACCGCAACTGAAAAGTTGTCATCAGAAAGGGATGGGTTGAATTTCTGCACGTAGAAGCAAAAGGC [T23C T32G] | 0.00399 |
| GAGACCGCAACTGAAAAGTTGTTATCCGAAATGGATAGGTTGAATTTCTGCACGTAGAAGCAAAAGGC [A27C G37A] | 0.0106 |
| GAGACCGCAACTGAAAAGTTGTTATCAGAAATTGATGGGTTGATTTTCTGCACGTAGAAGCAAAAGGC [G33T A44T] | 0.299 |
| GAGACCGCAACTGAAAAGTTGTTATCAGAACTGGACGGGTTGAATTTCTGCACGTAGAAGCAAAAGGC [A31C T36C] | 0.0114 |
| GAGACCGCAACTGAAAAGTTGTTATCAGAAATGGATGGGTTCATTTTCTGCACGTAGAAGCAAAAGGC [G42C A44T] | 0.00542 |
| GAGACCGCAACTGAAAAGTTGTTATCAGAAATTGATGGGTTGAGTTTCTGCACGTAGAAGCAAAAGGC [G33T A44G] | 0.249 |
| GAGACCGCAACTGAAAAGTTGTTATCTGAAATGGACGGGTTGAATTTCTGCACGTAGAAGCAAAAGGC [A27T T36C] | 0.0659 |
| GAGACCGCAACTGAAAAGTTGTTATCAGAAATGGATGGGTTATTTTTCTGCACGTAGAAGCAAAAGGC [G42A A43T A44T] | 0.00133 |
| GAGACCGCAACTGAAAAGTTGTAATCAGCAATGGATGGGTTGAATTTCTGCACGTAGAAGCAAAAGGC [T23A A29C] | 0.15 |
| GAGACCGCAACTGAAAAGTTGTTATCAGAAACGGATCGGTTGAATTTCTGCACGTAGAAGCAAAAGGC [T32C G37C] | 0.00446 |
| GAGACCGCAACTGAAAAGTTGTTATCACAAATGGATGGGTTAAATTTCTGCACGTAGAAGCAAAAGGC [G28C G42A] | 0.264 |
| GAGACCGCAACTGAAAAGTTGTTACCAGAAATGCATGGGTTGAATTTCTGCACGTAGAAGCAAAAGGC [T25C G34C] | 0.00188 |
| GAGACCGCAACTGAAAAGTTGTTATCAGTAATGGATCGGTTGAATTTCTGCACGTAGAAGCAAAAGGC [A29T G37C] | 0.00775 |
| GAGACCGCAACTGAAAAGTTGTTATCAGAAATGTATGGGTTAAATTTCTGCACGTAGAAGCAAAAGGC [G34T G42A] | 0.00242 |
| GAGACCGCAACTGAAAAGTTGTTATCAGAAATAAATGGGTTGAATTTCTGCACGTAGAAGCAAAAGGC [G33A G34A] | 0.334 |
| GAGACCGCAACTGAAAAGTTGTTATCAAAAATGGATGGGTTGCATTTCTGCACGTAGAAGCAAAAGGC [G28A A43C] | 0.0816 |
| GAGACCGCAACTGAAAAGTTGTAATCAGAAATGGAAGGGTTGAATTTCTGCACGTAGAAGCAAAAGGC [T23A T36A] | 0.0114 |
| GAGACCGCAACTGAAAAGTTGTTATCAGAAAGGGATGGGTTAAATTTCTGCACGTAGAAGCAAAAGGC [T32G G42A] | 0.00352 |
| GAGACCGCAACTGAAAAGTTGTTATTAGAAATGGATCGGTTGAATTTCTGCACGTAGAAGCAAAAGGC [C26T G37C] | 0.00325 |
